system: AMPK-alpha2; construct: gene PRKAA2; details: concentration: 1 μM, replicates: in singlicate; n = 1;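 note: KINOMEscan kinase panel screen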
Friendly reminder: %Inh below 10% is Satisfied, at or above is Not satisfied.

In plain terms, does Cc1nnc(-c2ccc3occ(-c4ccc(S(C)=O)cc4)c3c2)[nH]1 (centres unmarked) come in under 10% for %Inh? Satisfied

Moving on to COc1cc(Nc2nccc(N3CCC(NC(=O)Nc4cc(C)ccc4C)C3)n2)cc(OC)c1OC (centres unmarked) Not satisfied

Please do the same for COc1ccc(Nc2nccc(NCCNC(=O)Nc3ccccc3F)n2)cc1 as well. Satisfied

What about Cc1ccc(-c2cc(-c3c[nH]nc3-c3ccccn3)ccn2)cc1 ? Satisfied

// next record Cc1cc(-c2ccc3c(c2)CC[C@@H](N[C@@H](C)c2ccccc2)C3)cnc1N.Cl Not satisfied

Would you kindly repeat that for COC(=O)c1c(-c2ccccc2)c2cc(C(=O)O)ccc2c(=O)n1Cc1ccccc1 ? Satisfied

Now the compound COc1ccccc1-c1ccc2c(NC(=O)C3CC3)n[nH]c2n1 Not satisfied

# iterate: CC1=C(C(=O)Nc2cc3cn[nH]c3cc2F)C(c2ccc(C(F)(F)F)cc2)CC(=O)N1 (centres unmarked) Not satisfied

Now the compound O=C1NC(=O)C(N2CCc3ccccc32)=C1c1ccccc1Cl Not satisfied

Now give it for Cc1cccc(-c2nc(-c3ccc(S(C)(=O)=O)cc3)sc2-c2ccnc(NCCc3ccccc3)c2)c1 too. Not satisfied

----------
Please respond with reported %Inh for every item in the list.
system: MYO3B; conditions: concentration: 1 μM, replicates: in singlicate; n = 1
Just the number in %, nothing appended.

What does the data say about its %Inh? Entry: Cc1cccc(-c2nc(-c3ccc(S(C)(=O)=O)cc3)sc2-c2ccnc(NCCc3ccccc3)c2)c1 0

Same question for COc1ccccc1-c1ccc2c(NC(=O)C3CC3)n[nH]c2n1 please. 0

Same thing, different molecule: Cc1ccc(-c2cc(-c3c[nH]nc3-c3ccccn3)ccn2)cc1 5

Next: COc1cc2ncnc(Nc3ccc4nc(-c5ccccc5)[nH]c4c3)c2cc1OC.Cl 0

Item: Fc1cc(Cl)ccc1Nc1ccnc2cc(-c3ccc(CN4CCCCC4)o3)ccc12 0

Same question, CCn1c(-c2cccnc2O)nc2cnccc21 this time 3

What about this molecule? CS(=O)(=O)c1ccc(-c2nc3n(c2-c2ccncc2)CCC3)cc1 77

Repeat for the following molecule: Cc1c(Cn2ccn3c(=O)cc(N4CCOCC4)nc23)cccc1C(F)(F)F 2

What about this molecule? COc1ccccc1CNC(=O)c1cc(C(=O)c2ccccc2C)c[nH]1 2

Here is the next molecule: COC(=O)c1c(-c2ccccc2)c2cc(OC)ccc2c(=O)n1Cc1ccccc1 0

Another molecule to check: Nc1ncnc2[nH]c(-c3ccccc3)nc12 0

----------
system: YSK1; construct: gene STK25; details: concentration: 1 μM, replicates: in singlicate; n = 1
What %Inh was measured for each of the following?
Answer format: number, then unit.

I have this compound here, O=c1cc(N2CCOCC2)nc2n(Cc3cccc(Cl)c3Cl)ccn12 , and I need its recorded %Inh. 8%

Also Cc1cccc(-c2cc(Nc3ccncc3)c3ccccc3n2)n1 , if possible. 8%

O=C1NC(=O)C(N2CCc3ccccc32)=C1c1ccccc1Cl , same question. 0%

----------
test system: PDGFRA; conditions: concentration: 1 μM, replicates: in singlicate; n = 1
Hi, to clarify the labels: True covers %Inh from 40% upward, False covers anything below 40%.

For this molecule, is measured %Inh 40% or higher? Cc1ccc(-c2cc(-c3c[nH]nc3-c3ccccn3)ccn2)cc1 False

Same thing, different molecule: Cn1ccc2ncnc(Oc3ccc(NC(=O)Nc4ccccc4)cc3)c21 True

How about Cn1ccc2ncnc(Oc3cccc(C(=O)Nc4ccccc4)c3)c21 ? False

Next record, please: O=S(=O)(c1ccc(-c2ccnc3[nH]ccc23)cc1)N1CCCC1 False

Please give the result for Cl.O=C(Nc1cccc(-c2nn3ncccc3c2-c2ccnc(Nc3cccnc3)n2)c1)c1c(F)cccc1F too. False

Can you handle COC(=O)c1c(-c2ccccc2)c2cc(OC)ccc2c(=O)n1Cc1ccccc1 next? True

Also COc1ccccc1-c1ccc2c(NC(=O)C3CC3)n[nH]c2n1 , if possible. False

# iterate: COc1cc2nccc(Nc3ccc(NC(=O)c4ccc(C)cc4)c(O)c3)c2cc1OC.Cl False

Same lookup for Cc1nnc(-c2ccc3occ(-c4ccc(S(C)=O)cc4)c3c2)[nH]1 (stereo not drawn) , please. False
